Tested on: weeds
method notes: Glasshouse weed control, HST inhibitors alone and with A22, post-emergence
Format: in vivo
assay conditions: Digitaria sanguinalis, 336 h, DIGSA, 14 DAT, 62.5 g/ha alone, single replicate, read-out: % control score, Obs
Protocol: In a further test, the results of which are depicted in tables 18 and 19, weed seeds are planted out in trays containing 50% peat/50% John Innes no. 3 soil and grown in the glass house at 24-27 C day; 18-21 C night and approximately a 15 h photoperiod. Humidity is ˜65% and light levels at bench level are up to 2 mmol/m^2. […] Plants are assessed at 14 DAT with herbicidal damage scored on a scale from 0 to 100%. […]
Listed here: items and their measured pest or weed control at 62.5 g/ha.
observation type: pest or weed control at 62.5 g/ha (%)

- compound: "O=c1c(-c2cc(C(F)(F)F)ccc2Cl)c(O)c2nccnc2n1CC(F)F"
  measure unit: "%"
  recorded value: 10
- compound: "O=c1c(-c2cc(Cl)ccc2C(F)(F)F)c(O)c2nccnc2n1CC(F)F"
  measure unit: "%"
  recorded value: 50
- compound: "O=c1c(-c2c(F)ccc(F)c2Cl)c(O)c2nccnc2n1CC(F)(F)F"
  measure unit: "%"
  recorded value: 5
- compound: "O=c1c(-c2c(Cl)cccc2C(F)(F)F)c(O)c2nccnc2n1CC(F)F"
  measure unit: "%"
  recorded value: 60
- compound: "CC1=NN(C)C(=O)C(c2c(C)cc(C)cc2C)C1=O (stereo not drawn)"
  measure unit: "%"
  recorded value: 10
- compound: "O=S1(=O)C(c2ccc(Br)cc2C(F)(F)F)=C(O)c2nccnc2N1CC(F)F"
  measure unit: "%"
  recorded value: 0
